studyTarget: Hexokinase-4 (Homo sapiens, UniProt P35557)
Sequence (P35557 whole entry): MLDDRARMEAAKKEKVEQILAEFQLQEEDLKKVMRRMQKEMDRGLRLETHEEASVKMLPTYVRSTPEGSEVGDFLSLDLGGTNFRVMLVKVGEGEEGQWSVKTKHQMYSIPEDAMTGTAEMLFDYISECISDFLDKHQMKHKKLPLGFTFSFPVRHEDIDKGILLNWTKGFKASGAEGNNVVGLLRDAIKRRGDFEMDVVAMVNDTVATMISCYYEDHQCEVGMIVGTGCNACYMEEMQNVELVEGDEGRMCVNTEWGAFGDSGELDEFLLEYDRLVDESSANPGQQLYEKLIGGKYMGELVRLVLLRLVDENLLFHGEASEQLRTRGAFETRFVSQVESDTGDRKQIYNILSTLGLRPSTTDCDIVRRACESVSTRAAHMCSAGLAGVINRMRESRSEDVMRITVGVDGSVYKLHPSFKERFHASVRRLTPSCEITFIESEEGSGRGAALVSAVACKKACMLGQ
testDescription: Activation of human recombinant glucokinase using 5 mM glucose as substrate in presence of NAD+ by glucose 6-phosphate dehydrogenase coupled assay
log10(EC50) listing for selected molecules.
Quick note: numbers are log10 of EC50, with nM as the unit.

CNC(=O)Nc1cc(Oc2cncc(OC)c2)c([C@H]2COCCC2(F)F)cn1 ... 2.72
CNC(=O)Nc1cc(Oc2cncc(C)c2)c(CCO)cn1 ... 2.11
CNC(=O)Nc1cc(Oc2cncc(OC)c2)c(C2=CCCOC2)cn1 ... 2.60
CNC(=O)Nc1cc(Oc2cncc(C)c2)c([C@H]2C[C@](C)(O)C2)cn1 ... 2.20
CNC(=O)Nc1cc(Oc2cncc(C)c2)c(CCCO)cn1 ... 1.82
CNC(=O)Nc1cc(Oc2cncc(C)c2)c([C@H]2C[C@@H](CO)C2)cn1 ... 1.60
CNC(=O)Nc1cc(Oc2cncc(C)c2)c([C@H]2C[C@@H](C(C)(C)O)C2)cn1 ... 1.71
CNC(=O)Nc1cc(Oc2cncc(C)c2)c([C@H]2C[C@@H](O)C2)cn1 ... 2.04

stdin: Read off the recorded log10(EC50) for `CNC(=O)Nc1cc(Oc2cncc(OC)c2)c(C2=CCOCC2)cn1`
stdout: 1.82

stdin: Read off the recorded log10(EC50) for `CNC(=O)Nc1cc(Oc2cncc(C)c2)c([C@H]2C[C@H](O)C2)cn1`
stdout: 1.86
